For each entry below, report its cell count value.
assay: inhibitors of TNFa-induced NFkB p65 translocation, primary screen, imaging, HUVEC, MLSMR starter and 10KST1 sets (AID 438);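 further: compound added about 3h40 before a 20 min TNFalpha stimulation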
condition context: HUVEC TNFa-induced p65 nuclear translocation; measured here: nuclei count (cytotoxicity indicator), at 2.08 µM
Give only the figure.

Recorded cell count for Cc1cc(OCC(O)CN2CCN(CCO)CC2)ccc1C(C)C (configuration not stated) , please?
428

Do the same for CCOC(=O)C(C)Sc1nc2c(cnn2-c2ccc(C)cc2)c(=O)[nH]1 (configuration not stated) please
239

And COc1cccc(C2CC(c3ccccc3)n3ncnc3N2)c1 (configuration not stated) ?
564

Same question, `CCOc1ccc(NC(=O)CN2CCN(CC(=O)c3ccc(OCC)cc3)CC2)cc1` this time
418

Next: `Cc1nn(Cc2ccccc2)c(C)c1NC(=O)c1cc(-c2ccco2)on1`
408

Can you check `COc1ccc(S(=O)(=O)NCCCN2CCOCC2)c2ccccc12` next?
674

`Cc1cc(C)cc(NC(=O)c2nnn(Cc3cc(C)ccc3C)c2N)c1` ?
598

Another compound to check: Cc1ccc2c(c1C)NC(C(=O)O)C1CC=CC21 (configuration not stated)
371

// same read-out, input: `Cc1ccc(S(=O)(=O)CCC(=O)Nc2ccc3c(c2)OCO3)cc1`
666

Likewise for `CCC(=O)OC1(C#CCOc2ccc(OC)cc2)CCN(C)CC1` ?
393

How about `Cc1c(CNCc2cccs2)c(C(=O)O)c(C)n1Cc1ccccc1` ?
451

Try the compound `CCCn1c2ccccc2c2nnc(SCC(=O)Nc3ncccn3)nc21`
696

How about C[C@H](NC(=O)OC(C)(C)C)C(=O)NCC1CCC(C(=O)O)CC1 (some centres not stated) ?
376

What do you have for `COCCn1c(C)cc(C(=O)COC(=O)c2ccc(N3CCCC3=O)cc2)c1C` ?
527

Same question, `COc1ccc(-c2nnc(SCC(=O)Nc3cc(C)on3)n2C)cc1OC` this time
364

Please give the result for `COC(=O)c1ccc(CSc2nnnn2Cc2ccccc2)cc1` too.
341

Another compound to look at: CC1CN(c2c3c(nc4ncnn24)CCCC3)CC(C)O1 (configuration not stated)
752

`O=C(Nc1ccccc1)N(Cc1cccnc1)Cc1ccco1` , same question.
335

Would you mind doing CC(C)c1ccc(C(O)c2cnc(C(C)C)n2C)cc1 (configuration not stated) as well?
723

Ok, now `Cc1nnc(NC(=O)CSc2nnc(-c3ccc(S(=O)(=O)N4CCCC4)cc3)n2C)s1`
575

Now consider `CC(=O)c1c(OC(=O)c2ccco2)c2ccccc2n1C` .
386

# iterate: `O=c1cc(-c2ccccc2)[nH]c2nc3ccccc3n12`
302

Moving on to `COc1ccc(OC)c(S(=O)(=O)NCCO)c1`
217

Now this one: Cc1ccc(NC(=O)CS(=O)CC(=O)NCC2CCCO2)cc1 (configuration not stated)
515

Proceed to `O=C1c2ccccc2C(=O)N1c1cccc(-c2nc3ccccc3o2)c1`
464

Now the compound `O=C(c1ccc(Cl)cc1)N1CCCOC1`
784

Also check `COC(=O)C(F)(F)Sc1c(C)[nH]c2ccccc12`
699

Also, Cc1ccc(S(=O)(=O)N2CCN(C(=O)N3CCOCC3)C2c2ccc(N(C)C)cc2)cc1 (configuration not stated) please.
377

Here is the next compound: CCn1c(SCC(=O)Nc2ccc3c(c2)OCO3)nc2c(c1=O)SC(C)C2 (configuration not stated)
496

What do we get for O=C(CSc1nnc(-c2cccs2)o1)NCC1CN(Cc2ccccc2)CCO1 (configuration not stated) ?
669

Queued: `CCCC(=O)Nc1ccccc1NC(=O)CCC`
353

Also `CCOC(=O)c1c(NC(=O)OC)sc2c1CCC2` ?
496

Could you do the same for `COC(=O)c1ccccc1S(=O)(=O)N(CCCO)Cc1cc2c(C)ccc(C)c2[nH]c1=O` , please?
688

And `CS(=O)(=O)N(CC(=O)Nc1ccc2c(c1)OCO2)Cc1ccc(Cl)cc1` ?
303

One more compound: O=C1C2C3C=CC(C3)C2C(=O)N1CNc1ccc(O)cc1 (configuration not stated)
307

Try this compound too: `COc1ccc(NC(=O)N2CCC(c3nc(-c4cccs4)no3)CC2)cc1`
486

Please give the result for `Nc1cc(N)nc(SCc2ccccc2)n1` too.
371

Lookup `CCOC(=O)CS(=O)(=O)c1nc(-c2ccccc2)cc(C(F)(F)F)n1`
380

Entry to check: `CCOC(=O)c1[nH]c(C)c(C(=O)Nc2ccc(C)cc2C)c1C`
505

Can you check `CN(C)C(=O)CSc1nnc([C@H](Cc2c[nH]c3ccccc23)NC(=O)OC(C)(C)C)o1` next?
375

Request: `COC(=O)c1ccccc1NC(=O)CN1CCC(n2nnc3cc(F)ccc32)CC1`
488

Same thing, different compound: Cc1c(NC(=O)C(C)Oc2ncnc3ccccc23)c(=O)n(-c2ccccc2)n1C (configuration not stated)
547
